Measured CC50 at 3 days accompanies every entry in the list below.
procedure details: Cell viability by CellTiter-Glo 2.0 (intracellular ATP) in HepG2.117 cells
Type: cell-based
condition context: human, CellTiter-Glo 2.0, HepG2.117 cells, 3 days incubation

Study these solved cases before continuing.
molecule	value reported
C=C[C@H](C)Nc1nc2c(c(=O)n1-c1cnc3c(c1)ncn3C)C[C@@H](C)N(C(=O)c1ccc(Br)c(C(F)(F)F)c1)C2 [Compound 26]	> 0.5 µM
C=C[C@@H](C)Nc1nc2c(c(=O)n1-c1ccc(C(=O)NC)c(Cl)c1)C[C@@H](C)N(C(=O)c1ccc(Br)c(C(F)(F)F)c1)C2 [Compound 19]	> 0.5 µM

Tell us which CC50 at 3 days value is on record for C=C[C@H](C)Nc1nc2c(c(=O)n1-c1ccc3c(c1)nc(C)n3C)C[C@@H](C)N(C(=O)c1ccc(Br)c(C(F)(F)F)c1)C2 [Compound 28] 30.5 µM

Tell us which CC50 at 3 days value is on record for C=CCN(C)c1nc2c(c(=O)n1-c1ccc(C(=O)NC)cc1)C[C@@H](C)N(C(=O)c1ccc(Br)c(C(F)(F)F)c1)C2 [Compound 6] > 0.5 µM

Tell us which CC50 at 3 days value is on record for CNC(=O)c1ccc(-n2c(C#CC(C)(C)N)nc3c(c2=O)C[C@@H](C)N(C(=O)c2ccc(Br)c(C(F)(F)F)c2)C3)cc1 [Compound 14] > 0.5 µM

Tell us which CC50 at 3 days value is on record for C=CC(Nc1nc2c(c(=O)n1-c1ccc(C(=O)NC)cc1)C[C@@H](C)N(C(=O)c1ccc(Br)c(C(F)(F)F)c1)C2)C1CCC1 (stereo partly drawn) [Compound 15] > 0.5 µM

Tell us which CC50 at 3 days value is on record for C=C[C@H](C)Nc1nc2c(c(=O)n1-c1ccc(C(=O)NC)nc1)C[C@@H](C)N(C(=O)c1ccc(Br)c(C(F)(F)F)c1)C2 [Compound 41] > 50 µM

Tell us which CC50 at 3 days value is on record for C=CC(C)N(C)c1nc2c(c(=O)n1-c1ccc(C(=O)NC)cc1)C[C@@H](C)N(C(=O)c1ccc(Br)c(C(F)(F)F)c1)C2 (stereo partly drawn) [Compound 10a] > 50 µM

Tell us which CC50 at 3 days value is on record for C=C[C@H](C)Nc1nc2c(c(=O)n1-c1cnc(C(=O)NC)c(Cl)c1)C[C@@H](C)N(C(=O)c1ccc(Br)c(C(F)(F)F)c1)C2 [Compound 42] > 50 µM

* * *

procedure details: Cell viability by CellTiter-Glo 2.0 (intracellular ATP) in HepG2.117 cells
Type: cell-based
condition context: human, CellTiter-Glo 2.0, HepG2.117 cells, 3 days incubation
Measured CC50 at 3 days accompanies every entry in the list below.

Study these solved cases before continuing.
molecule	CC50 at 3 days
C=C[C@H](C)Nc1nc2c(c(=O)n1-c1cnc3c(ncn3C)n1)C[C@@H](C)N(C(=O)c1ccc(Br)c(C(F)(F)F)c1)C2 [Compound 46]	> 50 µM
C=C[C@H](C)Nc1nc2c(c(=O)n1-c1cc(F)c3ncn(C)c3c1)C[C@@H](C)N(C(=O)c1ccc(Br)c(C(F)(F)F)c1)C2 [Compound 49]	23 µM

Tell us which CC50 at 3 days value is on record for C=C[C@H](C)Nc1nc2c(c(=O)n1-c1ccc3c(c1)ncn3C)C[C@@H](C)N(C(=O)c1ccc(Br)c(C(F)(F)F)c1)C2 [Compound 17] > 0.5 µM
